Where these numbers come from: patent US5739161A

Assay: observation of diarrhea and loose feces in the rats
Type: in vivo, rat (Crj: Wister)
Conditions: rat, oral, 1000 μg/kg × 3, up to 2 hours after 3rd administration
Method: Crj: Wister rats (7 weeks old, weight: 220-250 g) were kept without food for 16 hours, and hydrochloric acid-D-galactosamine 800 mg/kg was administrated by intra peritonealy injection in order to elicit acute hepatopathy model. […] The generation of a diarrhea and a loose feces observed up to 2 hours after the 3rd administration of the test compounds, and the number of the rats having diarrhea or loose feces were recorded. […]
quantity name: diarrhea / loose feces (number of rats having diarrhea or loose feces)

1) CC[C@H](C)CC(F)(F)C(=O)CC[C@H]1[C@H](O)CC(=O)[C@@H]1CCCCCCC(=O)O [Test Compound 9] | non
2) CCC[C@H](C)C(F)(F)C(=O)CC[C@H]1[C@H](O)CC(=O)[C@@H]1CCCCCCC(=O)O [Test Compound 8] | no diarrhea
3) CC(C)C[C@@H](C)C(F)(F)C(=O)CC[C@H]1[C@H](O)CC(=O)[C@@H]1CCCCCCC(=O)O [Test Compound 6] | no diarrhea
4) CC(C)CCC(F)(F)C(=O)CC[C@H]1CCC(=O)[C@@H]1CCCCCCC(=O)O [Test Compound 7] | no diarrhea
